# System: 496974-208-R-J2-PDC complex spheroids, growth % test/control;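 note: spheroids exposed to the drugs for 7 days before readout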
# measurement-notes: Anticancer human tumor 496974-208-R-J2-PDC patient-derived pancreatic carcinoma cell line growth inhibition [CLK]; active = viability on the fitted dose curve at most 10% of control; inactive = the rest
# protocol-conditions: second compound 0.316 µM; first compound 0.316 µM
Pick one and only one: YES for active, NO for inactive

- compound: "C=CC(=O)N1CCN(c2nc(=O)n(-c3c(C)ccnc3C(C)C)c3nc(-c4c(O)cccc4F)c(F)cc23)C(C)C1 (centres undefined) + CNC(=O)c1ccc(Nc2nc(OC3CCCC3)c3c(-c4ccc5nc(C)oc5c4)c[nH]c3n2)c(OC)c1"
  class-label: "NO"

Problem: How was CCN1CCN(Cc2ccc(Nc3ncc(F)c(-c4cc(F)c5nc(C)n(C(C)C)c5c4)n3)nc2)CC1 + CN1CCN(c2cc(C(=O)Nc3cc4cc(-c5cnn(C)c5)ccc4cn3)ccn2)CC1 classified in this test?
Solution: YES

Problem: Here is the next compound: CC1COCCN1c1cc(C2(S(C)(=N)=O)CC2)nc(-c2ccnc3[nH]ccc23)n1 (centres undefined) + CN1CCN(c2cc(C(=O)Nc3cc4cc(-c5cnn(C)c5)ccc4cn3)ccn2)CC1
Solution: YES

Problem: Here is the next compound: CC(Nc1ccc2c(c1)OCCn1cc(N3C(=O)OCC3C(F)F)nc1-2)C(N)=O (centres undefined) + CNC(=O)c1ccc(Nc2nc(OC3CCCC3)c3c(-c4ccc5nc(C)oc5c4)c[nH]c3n2)c(OC)c1
Solution: NO
